Origin of values: patent US20230077362A1

Test system: Cabbage Looper (Trichoplusia ni) ("CL"), second instar larvae
TEST_PROTOCOL: Bioassay on cabbage looper (CL), 128-well diet tray assay
Type: in vivo
DETAILS: Trichoplusia ni, read-out: CL (Biological Results, rating)
MEASUREMENT_TYPE: pest or weed control at 50 µg/cm2

Example cases with answers are listed next.
[
  {
    "COMPOUND": "CCNc1ccc(C(C)C)c(N2C(=O)CS/C2=N\\C(=O)Nc2ccc(-c3ncn(-c4ccc(OC(F)(F)F)cc4)n3)cc2F)c1 [Compound J106]",
    "MEASURED_VALUE": "50 to 100%"
  },
  {
    "COMPOUND": "CCCNc1ccc(C(C)C)c(N2C(=O)CS/C2=N\\C(=O)Nc2ccc(-c3ncn(-c4ccc(OC(F)(F)F)cc4)n3)cc2C)c1 [Compound J128]",
    "MEASURED_VALUE": "50 to 100%"
  },
  {
    "COMPOUND": "CCCc1ccc(N(C)C)cc1N1C(=O)CS/C1=N\\C(=O)Nc1ccc(-c2ncn(-c3ccc(OC(F)(F)F)cc3)n2)cc1F [Compound J196]",
    "MEASURED_VALUE": "50 to 100%"
  },
  {
    "COMPOUND": "CCCOc1ccc(C)cc1N1C(=O)CS/C1=N\\C(=O)Nc1ccc(-c2ncn(-c3ccc(OC(F)(F)F)cc3)n2)cc1F [Compound J125]",
    "MEASURED_VALUE": "50 to 100%"
  },
  {
    "COMPOUND": "Cc1ccc(C(C)C)c(N2C(=O)CS/C2=N\\C(=O)Nc2ccc(-c3ncn(-c4ccc(OC(F)(F)F)cc4)n3)cc2F)c1 [Compound J19]",
    "MEASURED_VALUE": "50 to 100%"
  }
]

Next:
Would you kindly share the measured pest or weed control at 50 µg/cm2 for COc1ccc(-n2cnc(-c3ccc(NC(=O)/N=C4\SCC(=O)N4c4cc(N(C)C)ccc4C(C)C)c(F)c3)n2)cc1 [Compound J146] ?
50 to 100%
